test: physchem; conditions: phosphate buffered solution, pH 7, Water Solubility, phosphate buffered solution (pH 7)
MEASURED PARAMETER: solubility

GET /value?item= CON=C1CN(c2nc3c(cc2F)c(=O)c(C(=O)O)cn3C2CC2)CC1CN.CS(=O)(=O)O (stereo not shown) [Methanesulfonate] &field=solubility returns > 30 mg/mL

###

system: Staphylococcus aureus giorgio; assay: In vitro antibacterial activity (MIC, agar dilution), Biological Example 1; assay type: cell-based; conditions: 18 h, Table 25, read-out: Minimum Inhibitory Concentration
MEASURED PARAMETER: MIC

Example entries begin here.
# COMPOUND, TEST SYSTEM, RESULT
records = [
    ("NCC1CN(c2c(F)cc3c(=O)c(C(=O)O)cn(C4CC4)c3c2Cl)CC1=NOCc1ccccc1 (centres unmarked)", "Staphylococcus aureus giorgio", "≤ 8 ng/mL"),
    ("CC(C)ON=C1CN(c2nc3c(cc2F)c(=O)c(C(=O)O)cn3C2CC2)CC1CN (centres unmarked)", "Staphylococcus aureus giorgio", "≤ 8 ng/mL"),
    ("NCC1CN(c2nc3c(cc2F)c(=O)c(C(=O)O)cn3C2CC2)CC1=NOCc1ccccc1 (centres unmarked)", "Staphylococcus aureus giorgio", "≤ 8 ng/mL"),
    ("CON=C1CN(c2cc3c(cc2F)c(=O)c(C(=O)O)cn3C2CC2)CC1CN (centres unmarked)", "Staphylococcus aureus giorgio", "16 ng/mL"),
    ("NCC1CN(c2cc3c(cc2F)c(=O)c(C(=O)O)cn3C2CC2)CC1=NOCc1ccccc1 (centres unmarked)", "Staphylococcus aureus giorgio", "≤ 8 ng/mL"),
    ("C#CCCON=C1CN(c2nc3c(cc2F)c(=O)c(C(=O)O)cn3C2CC2)CC1CN (centres unmarked)", "Staphylococcus aureus giorgio", "≤ 8 ng/mL"),
    ("CC(C)CON=C1CN(c2nc3c(cc2F)c(=O)c(C(=O)O)cn3C2CC2)CC1CN (centres unmarked)", "Staphylococcus aureus giorgio", "≤ 8 ng/mL"),
    ("NCC1CN(c2c(F)c(N)c3c(=O)c(C(=O)O)cn(C4CC4)c3c2F)CC1=NOCc1ccccc1 (centres unmarked)", "Staphylococcus aureus giorgio", "≤ 8 ng/mL"),
]

Hi there! I need MIC for each item below, if you can.
1. CC1COc2c(N3CCN(C)CC3)c(F)cc3c(=O)c(C(=O)O)cn1c23 (centres unmarked) [OFLX, ofloxacin, reference compound]
2. CON=C1CN(c2nc3c(cc2F)c(=O)c(C(=O)O)cn3C2CC2)CC1CN (centres unmarked)
3. CON=C1CN(c2c(F)cc3c(=O)c(C(=O)O)cn(C4CC4)c3c2F)CC1CN (centres unmarked)
4. C#CCON=C1CN(c2nc3c(cc2F)c(=O)c(C(=O)O)cn3C2CC2)CC1CN (centres unmarked)

*A*
1. 250 ng/mL
2. ≤ 8 ng/mL
3. ≤ 8 ng/mL
4. ≤ 8 ng/mL

Hi there! I need MIC for each item below, if you can.
1. CC(C)(C)ON=C1CN(c2nc3c(cc2F)c(=O)c(C(=O)O)cn3C2CC2)CC1CN (centres unmarked)
2. CON=C1CN(c2c(F)cc3c(=O)c(C(=O)O)cn(C4CC4)c3c2Cl)CC1CN (centres unmarked)

*A*
1: ≤ 8 ng/mL; 2: 16 ng/mL
